molecular target: UniProt:P24941
Consider the following compounds; for each one, report its IC50.

Answered examples (5):
COc1cc(CC(=O)Nc2n[nH]c3ccc(N4CCCS4(=O)=O)cc23)cc(OC)c1 : < 50 nM
O=C(CN1CCN(c2ccc(Cl)cc2)CC1)Nc1n[nH]c2ccc(N3CCCS3(=O)=O)cc12 : < 10000 nM
Nc1ccc(CC(=O)Nc2n[nH]c3ccc(N4CCCS4(=O)=O)cc23)cc1 : < 50 nM
O=C(Cc1ccc(Cn2ccnc2)cc1)Nc1n[nH]c2ccc(N3CCCS3(=O)=O)cc12 : < 1000 nM
O=C(Nc1n[nH]c2ccc(N3CCCS3(=O)=O)cc12)C(c1ccccc1)C1CCCC1 (configuration not stated) : < 100000 nM

# per-item lookup of IC50; items listed below
1. CC(=S)Nc1n[nH]c2ccc(N3CCCS3(=O)=O)cc12
2. O=C(Cn1cnc(-c2ccc(-c3ccccc3)cc2)c1)Nc1n[nH]c2ccc(N3CCCS3(=O)=O)cc12
3. O=C(Cc1ccc([N+](=O)[O-])cc1)Nc1n[nH]c2ccc(N3CCCS3(=O)=O)cc12
4. O=S1(=O)CCCN1c1ccc2[nH]nc(NC(=S)Cc3ccccc3)c2c1
5. O=C(Cc1ccc(-c2ccncc2)cc1)Nc1n[nH]c2ccc(N3CCCS3(=O)=O)cc12
6. CC(=O)Nc1n[nH]c2ccc(N3CCCS3(=O)=O)cc12
7. CCOc1ccc(CC(=O)Nc2n[nH]c3ccc(N4CCCS4(=O)=O)cc23)cc1[N+](=O)[O-]
8. O=C(CN1CCOCC1)Nc1n[nH]c2ccc(N3CCCS3(=O)=O)cc12

1: < 50000 nM; 2: < 500 nM; 3: < 50 nM; 4: < 10000 nM; 5: < 50 nM; 6: > 100000 nM; 7: < 50 nM; 8: < 10000 nM

For the 7 compounds below, give their IC50 values.
1. CCN(CC)c1cccc(CC(=O)Nc2n[nH]c3ccc(N4CCCS4(=O)=O)cc23)c1
2. CN1CCN(Cc2ccc(CC(=O)Nc3n[nH]c4ccc(N5CCCS5(=O)=O)cc34)cc2)CC1
3. O=C(Cn1cnc(-c2ccccc2)c1)Nc1n[nH]c2ccc(N3CCCS3(=O)=O)cc12
4. O=C(Cc1ccc(-c2ccsc2)cc1)Nc1n[nH]c2ccc(N3CCCS3(=O)=O)cc12
5. O=C(Cc1ccc(N(Cc2ccccc2)Cc2ccccc2)cc1)Nc1n[nH]c2ccc(N3CCCS3(=O)=O)cc12
6. CC(=O)Nc1nc(CC(=O)Nc2n[nH]c3ccc(N4CCCS4(=O)=O)cc23)cs1
7. O=C(Cc1ccc(-c2ccco2)cc1)Nc1n[nH]c2ccc(N3CCCS3(=O)=O)cc12

1: < 500 nM; 2: < 100 nM; 3: < 50 nM; 4: < 50 nM; 5: < 500 nM; 6: < 10000 nM; 7: < 50 nM

The following compounds each have a reported value; give each one's IC50.
1. O=C(CN1CCCCC1)Nc1n[nH]c2ccc(N3CCCS3(=O)=O)cc12
2. CCOc1ccc(CC(=O)Nc2n[nH]c3ccc(N4CCCS4(=O)=O)cc23)cc1

< 10000 nM
< 50 nM
